B1: CPEB3 Ribozyme (parent)
chain: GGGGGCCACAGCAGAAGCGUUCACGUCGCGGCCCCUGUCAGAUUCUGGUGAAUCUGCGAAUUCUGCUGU

Variants of: B1
ASSAY_EXPLANATION: self-cleavage, relative activity (ratio to wild type); higher = more cleavage; co-transcriptional

MUTATION_NOTATION	self-cleavage
C6A C54A	0.282
A16U G50C	0.762
G25U G37U	0.103
U36A A42G	0.355
C9A C29U	0.992
U36G U53A	0.273
U38G G48A	0.21
C35G U61G	0.296
U43A U64G	0.578
C34G C66A	0.411
U61C C63G	0.427
C6U A51G	1.01
C7A C45A	0.485
G14A U69C	1
G2C G68U	0.0864
G19A U21C	0.164
A42U C57A	0.379
U61G U62G	0.71
C12A C34U	0.834
A23U G58A	1.02
U26A U46C	0.809
G1A A10G	0.115
A13U G58U	0.911
G48C U53A	0.968
G1U A13C	0.0972
C32G C63U	0.358
U53G G68C	0.882
G28C G30U	0.2
A60U C66G	0.405
G2C A52G	0.0291
G28A U38A	0.176
A51U U53A	0.918
A15U G50A	0.943
G56A G68U	1.04
G17U G68U	0.768
C29A C54U	0.682
G19A U53G	0.18
G47A U55A	1
U46C G47U	1.02
A10U G56U	0.984
A15G G68U	1.01
A13C U69C	1.06
U26C C39A	0.79
C18G G65U	0.161
C45A C63G	0.813
G31A C66A	0.7
